system_name: EGFR L858R/T790M/C797S (Homo sapiens, UniProt P00533, C797S/L858R/T790M)
Sequence (P00533 25-1210 T790M/C797S/L858R): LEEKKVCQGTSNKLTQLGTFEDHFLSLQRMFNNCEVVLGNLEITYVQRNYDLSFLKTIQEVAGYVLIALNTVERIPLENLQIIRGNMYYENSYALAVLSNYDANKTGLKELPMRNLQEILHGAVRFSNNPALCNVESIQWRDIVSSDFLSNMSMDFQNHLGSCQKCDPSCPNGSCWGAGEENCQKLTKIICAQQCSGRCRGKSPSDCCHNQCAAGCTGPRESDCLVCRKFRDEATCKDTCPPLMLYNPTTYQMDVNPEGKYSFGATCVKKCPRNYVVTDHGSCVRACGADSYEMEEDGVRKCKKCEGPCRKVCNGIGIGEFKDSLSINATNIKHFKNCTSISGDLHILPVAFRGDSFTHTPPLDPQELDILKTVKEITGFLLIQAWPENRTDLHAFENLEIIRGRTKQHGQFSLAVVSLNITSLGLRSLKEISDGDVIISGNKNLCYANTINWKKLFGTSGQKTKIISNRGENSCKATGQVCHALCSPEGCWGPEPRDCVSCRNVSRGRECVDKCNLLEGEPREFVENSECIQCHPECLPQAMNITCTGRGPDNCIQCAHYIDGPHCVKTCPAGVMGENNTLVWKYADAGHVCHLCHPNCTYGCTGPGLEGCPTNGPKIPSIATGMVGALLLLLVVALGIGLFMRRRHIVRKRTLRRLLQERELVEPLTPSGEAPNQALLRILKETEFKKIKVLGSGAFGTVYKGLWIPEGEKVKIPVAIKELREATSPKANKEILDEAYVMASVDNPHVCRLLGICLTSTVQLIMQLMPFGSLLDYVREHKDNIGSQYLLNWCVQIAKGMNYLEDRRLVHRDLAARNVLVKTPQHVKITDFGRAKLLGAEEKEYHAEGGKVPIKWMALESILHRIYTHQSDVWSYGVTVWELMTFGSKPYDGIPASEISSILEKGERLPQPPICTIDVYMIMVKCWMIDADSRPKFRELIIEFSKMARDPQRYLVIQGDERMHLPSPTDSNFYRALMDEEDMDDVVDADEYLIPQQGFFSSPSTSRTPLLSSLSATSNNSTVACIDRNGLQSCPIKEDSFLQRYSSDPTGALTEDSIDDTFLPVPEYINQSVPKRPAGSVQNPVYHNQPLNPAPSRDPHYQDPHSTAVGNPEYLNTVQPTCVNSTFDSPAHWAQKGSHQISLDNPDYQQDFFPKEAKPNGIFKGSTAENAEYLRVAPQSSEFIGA
protocol: Biochemical EGFR kinase assay (Lance Ultra TR-FRET), triple mutant L858R/T790M/C797S
condition_description: Km ATP; read-out: IC50 L858R/T790M/C797S (nM) Km ATP
experimental_readout: IC50 (nM)
Give bare numbers, in nM.

Previously resolved entries follow.
1) CC(C)(O)c1cnc(-c2cnc(Nc3ccnc(-c4cnn(S(=O)(=O)C5CC5)c4)n3)cc2N[C@H]2CC[C@@](C)(O)CC2)cn1: 0.1
2) CN(C)c1ccc(-c2cnc(Nc3ccnc(-c4cnn(S(=O)(=O)C5CC5)c4)n3)cc2N[C@H]2CC[C@@](C)(O)CC2)nc1: 0.5
3) CN1CCC(Oc2cnc(-c3cnc(Nc4ccnc(-c5cnn(S(=O)(=O)C6CC6)c5)n4)cc3N[C@H]3CC[C@@H](CO)CC3)cn2)CC1: 0.02
4) C[C@]1(O)CC[C@@H](Nc2cc(Nc3ccnc(-c4cnn(S(=O)(=O)C5CC5)c4)n3)ncc2-c2cnc(OC(F)F)cn2)CC1: 0.5
5) CC(C)Nc1cc(Nc2ccnc(-c3cnn(S(=O)(=O)C4CC4)c3)n2)ncc1-c1cnc(OC(F)F)cn1: 6.6
6) CC(C)(O)[C@H]1CC[C@@H](Nc2cc(Nc3ccnc(-c4cnn(S(=O)(=O)C5CC5)c4)n3)ncc2-c2cnc(OC(F)F)cn2)CC1: 1.7
7) CC(C)N1CCN(Cc2ccc(-c3cnc(Nc4ccnc(-c5cnn(S(=O)(=O)C6CC6)c5)n4)cc3N[C@H]3CC[C@@](C)(O)CC3)nc2)CC1: 0.1
8) O=S(=O)(C1CC1)n1cc(-c2nccc(Nc3cc(N[C@H]4CC[C@H](CCO)CC4)c(-c4cc(C(F)F)ccn4)cn3)n2)cn1: 0.7

Parameter requested: IC50. Apply to each item below.
1. C[C@]1(O)CC[C@@H](Nc2cc(Nc3ccnc(-c4cnn(S(=O)(=O)C5CC5)c4)n3)ncc2-c2ncccc2OCC(F)(F)F)CC1
2. CC(C)(O)[C@H]1CC[C@@H](Nc2cc(Nc3ccnc(-c4cnn(S(=O)(=O)C5CC5)c4)n3)ncc2-c2ccc(CN3CCC(O)CC3)cn2)CC1
3. C[C@]1(O)CC[C@@H](Nc2cc(Nc3ccnc(-c4cnn(S(=O)(=O)C5CC5)c4)n3)ncc2-c2cccnn2)CC1
4. O=S(=O)(C1CC1)n1cc(-c2nccc(Nc3cc(N[C@H]4CC[C@](O)(CO)CC4)c(-c4ccccn4)cn3)n2)cn1
5. C[C@]1(O)CC[C@@H](Nc2cc(Nc3ccnc(-c4cnn(S(=O)(=O)C5CC5)c4)n3)ncc2-c2ccc(N3CCC(O)CC3)cn2)CC1

[2.6, 0.1, 0.03, 0.1, 0.1]

* * *

system_name: EGFR L858R/T790M/C797S (Homo sapiens, UniProt P00533, C797S/L858R/T790M)
protocol: Biochemical EGFR kinase assay (Lance Ultra TR-FRET), triple mutant L858R/T790M/C797S
condition_description: ATP at Km; read-out: IC50 L858R/T790M/C797S, Km ATP
Protocol: Biochemical EGFR kinase assays were conducted using Lance Ultra time-resolved fluorescence resonance energy transfer (TR-FRET) technology from Perkin-Elmer. […] Each kinase reactions were incubated at room temperature for 1 hour and then stopped by the addition of 4 μL of stop solution (10 mM EDTA). […] After 60 minutes incubation at room temperature the LANCE signal was measured on an EnVision Multilabel Reader (Perkin-Elmer). […]
experimental_readout: IC50 (nM)
Numbers only, in nM.

Parameter requested: IC50. Apply to each item below.
1. O=S(=O)(C1CC1)n1cc(-c2nccc(Nc3cc(NC4CCC(CO)CC4)c(-c4ccc(C(O)C(F)(F)F)cn4)cn3)n2)cn1 (stereo not drawn)
2. CC(C)(O)[C@H]1CC[C@@H](Nc2cc(Nc3ccnc(-c4cnn(S(=O)(=O)C5CC5)c4)n3)ncc2-c2cc(NC3CC(F)(F)C3)ccn2)CC1
3. CN(C)CCOc1ccc(-c2cnc(Nc3ccnc(-c4cnn(S(=O)(=O)C5CC5)c4)n3)cc2N[C@H]2CC[C@@H](CO)CC2)nc1
4. CS(=O)(=O)c1ccc(-c2cnc(Nc3ccnc(-c4cnn(S(=O)(=O)C5CC5)c4)n3)cc2N[C@H]2CC[C@@](C)(O)CC2)nc1
5. O=S(=O)(C1CC1)n1cc(-c2nccc(Nc3cc(NC4CCC(F)(F)CC4)c(-c4ccc(N5CCC(F)(F)CC5)nn4)cn3)n2)cn1

1: 0.4; 2: 7.6; 3: 0.1; 4: 0.1; 5: 22.4

The origin of these recorded values is patent US12258328B2.
